Experiment: NCI Yeast Anticancer Drug Screen. Data for the rad50 strain (AID 155);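 note: 0% = growth of vehicle-only cultures of the same strain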
Details: S. cerevisiae rad50 strain growth inhibition; at 5.0 µM (retest, dose inferred, filed as 0.5); active compounds read high
Procedure: Growth inhibition of yeast strains with defined genetic alterations is measured as a screen for potential anti-cancer activity. Selected strains with alterations in DNA damage repair or cell cycle control were exposed to compounds and growth inhibition was measured relative to vehicle treated controls. The strain used in this assay is rad50
This is part of a sample that, as a whole, favours compounds with a hit. Of some 79,000 tested, about 15% had one in any assay.
Listed below: growth inhibition values for each entry.
Answer with a number only, understood to be in %.

Example cases with answers are listed next.
> print(dat)
                                   compound  test.value
1  CCN(CC)CCN(C)c1ccc(CO)c2c1C(=O)c1ccccc1S2=O (stereo not given)           5
2  CN1C=Cc2ccccc2C1C(C1c2ccccc2C=CN1C)[N+](=O)[O-] (stereo not given)           0
3  O=C1NC(=O)C(c2ccccc2)(c2ccccc2)C2CC3c4[nH]c5ccccc5c4CCN3CC12 (stereo not given)           5

[in] Consider the compound COc1ccc(CN2CCCN(Cc3ccc(OC)cc3OC)C2c2cccc([N+](=O)[O-])c2O)c(OC)c1 and give its recorded growth inhibition.
[out] 16

[in] Kindly indicate its recorded growth inhibition. Item: CCCC/C=C1/CCC(CN(C)C)C1=O (stereo not given)
[out] 7
